tested.target: full length active recombinant SYK enzyme (Homo sapiens, UniProt P43405)
Construct: full length active recombinant SYK enzyme (Millipore, Calif.)
assay.comment: Inhibition of Syk tyrosine phosphorylation activity (LANCE TR-FRET kinase assay)
pIC50: −log10 of the molar value.
assay.endpoint: pIC50

Consider the following items and state reported pIC50 for each.
1. NC(=O)c1ccc(N[C@@H]2CCCC[C@@H]2N)nc1Nc1ccc2ncsc2c1
2. NC(=O)c1cc(F)c(N[C@@H]2CCCC[C@@H]2N)nc1Nc1ccc2nccnc2c1
3. Cn1ccc2c(Nc3nc(N[C@@H]4CCCC[C@@H]4N)c(F)cc3C(N)=O)cccc21
4. CC[C@@H](Nc1nc(Nc2ccc3ncsc3c2)c(C(N)=O)cc1F)C(N)=O

8.00 to 9.00
8.00 to 9.00
> 9.00
7.00 to 8.00

Consider the following items and state reported pIC50 for each.
1. Cn1ncc2c(Nc3nc(N[C@H]4[C@@H](N)CCCC4(F)F)c(F)cc3C(N)=O)cccc21
2. Cn1ccc2c(Nc3cc(N[C@@H]4CCCC[C@@H]4N)ccc3C(N)=O)cccc21
3. NC(=O)c1cc(F)c(N[C@@H]2CCCC[C@@H]2N)nc1Nc1cccc(N2CCOCC2)c1

1. 8.00 to 9.00
2. 6.00 to 7.00
3. 7.00 to 8.00

May I ask what pIC50 has been recorded for Cc1cc(C)cc(Nc2cc(N[C@@H]3CCCC[C@@H]3N)ccc2C(N)=O)c1 ?
6.00 to 7.00
